- Tested on: WSU-DLCL2
- PROCEDURE_DETAILS: Methylated lysine of histone-H3 (H3K27Me3) detection by ELISA, WSU-DLCL2 cells
- Assay type: cell-based
- CONDITIONS: Homo sapiens, WSUDLCL2, 168 h; WSU-DLCL2, 7 days treatment, H3K27Me3 normalized to total histone-3; read-out: IC50 of cell methylation, WSU-DLCL2
Entries annotated with measured IC50

Reference set (3 entries):
CCN(c1cc(C2CC2CN2C[C@@H](C)O[C@@H](C)C2)cc(C(=O)NCc2c(C)cc(C)[nH]c2=O)c1C)C1CCOCC1 (stereo partly drawn) [Example 75]: > 1000 nM
CCN(c1cc(C2CC2CN2CCN(C)CC2)cc(C(=O)NCc2c(C)cc(C)[nH]c2=O)c1C)C1CCOCC1 (stereo not drawn) [Example 74]: 50 to 500 nM
CCN(c1cc(OC2CC(N3CCOCC3)C2)cc(C(=O)NCc2c(C)cc(C)[nH]c2=O)c1C)[C@H]1CC[C@H](N(C)CCOC)CC1 (stereo partly drawn) [Example 34]: 500 to 1000 nM

Input line: I would be grateful if you could share the reported IC50 for CCN(c1cc(O[C@H]2C[C@H](CN3CCOCC3)C2)cc(C(=O)NCc2c(C)cc(C)[nH]c2=O)c1Cl)C1CCOCC1 [Example 29] .
Output line: 50 to 500 nM

Input line: Would you mind doing CCN(c1cc(O[C@H]2C[C@H](N3CCOCC3)C2)cc(C(=O)NCc2c(C)cc(C)[nH]c2=O)c1C)C1CCOCC1 [Example 4] as well?
Output line: 50 to 500 nM

Input line: Continue with CCN(c1cc(O[C@H]2C[C@@H](N3CCN(C)CC3)C2)cc(C(=O)NCc2c(C)cc(C)[nH]c2=O)c1C)C1CCOCC1 [Example 19]
Output line: 50 to 500 nM

----------
- TARGET: EZH2 (Y641N) (Homo sapiens (Human), UniProt Q15910, Y641N)
- Sequence (Q15910 whole entry Y641N): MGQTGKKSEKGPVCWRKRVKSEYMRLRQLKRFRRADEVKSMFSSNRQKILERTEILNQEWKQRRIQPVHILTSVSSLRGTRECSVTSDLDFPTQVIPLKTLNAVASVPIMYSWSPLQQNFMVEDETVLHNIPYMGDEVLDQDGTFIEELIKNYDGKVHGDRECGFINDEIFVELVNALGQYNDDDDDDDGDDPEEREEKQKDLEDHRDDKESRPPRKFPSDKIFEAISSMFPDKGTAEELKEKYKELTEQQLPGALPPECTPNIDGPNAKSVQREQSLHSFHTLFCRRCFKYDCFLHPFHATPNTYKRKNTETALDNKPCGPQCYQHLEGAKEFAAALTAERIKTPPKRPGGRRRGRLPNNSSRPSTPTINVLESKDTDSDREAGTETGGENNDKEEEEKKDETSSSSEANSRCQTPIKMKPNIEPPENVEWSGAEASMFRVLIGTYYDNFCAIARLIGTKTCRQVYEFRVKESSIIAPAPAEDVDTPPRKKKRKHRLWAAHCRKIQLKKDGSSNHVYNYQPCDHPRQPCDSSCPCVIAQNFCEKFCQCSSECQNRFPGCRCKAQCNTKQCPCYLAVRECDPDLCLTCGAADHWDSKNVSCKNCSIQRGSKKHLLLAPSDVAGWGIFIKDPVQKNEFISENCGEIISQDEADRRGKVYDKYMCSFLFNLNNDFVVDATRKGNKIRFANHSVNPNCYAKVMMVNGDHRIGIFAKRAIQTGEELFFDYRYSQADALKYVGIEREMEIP
- Sequence (O75530 whole entry partner): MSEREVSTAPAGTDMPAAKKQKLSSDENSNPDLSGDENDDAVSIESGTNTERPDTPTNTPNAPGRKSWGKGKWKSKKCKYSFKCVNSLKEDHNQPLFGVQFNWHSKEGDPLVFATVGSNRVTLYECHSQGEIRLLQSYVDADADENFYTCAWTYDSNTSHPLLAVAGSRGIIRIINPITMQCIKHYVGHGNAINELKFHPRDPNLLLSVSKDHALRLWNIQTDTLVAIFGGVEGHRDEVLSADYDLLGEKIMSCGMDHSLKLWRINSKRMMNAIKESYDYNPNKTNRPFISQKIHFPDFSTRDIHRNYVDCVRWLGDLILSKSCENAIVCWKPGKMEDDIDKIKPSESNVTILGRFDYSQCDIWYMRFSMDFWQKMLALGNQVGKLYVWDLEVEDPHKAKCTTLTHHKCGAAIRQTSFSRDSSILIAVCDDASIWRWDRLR
- Sequence (Q15022 whole entry partner): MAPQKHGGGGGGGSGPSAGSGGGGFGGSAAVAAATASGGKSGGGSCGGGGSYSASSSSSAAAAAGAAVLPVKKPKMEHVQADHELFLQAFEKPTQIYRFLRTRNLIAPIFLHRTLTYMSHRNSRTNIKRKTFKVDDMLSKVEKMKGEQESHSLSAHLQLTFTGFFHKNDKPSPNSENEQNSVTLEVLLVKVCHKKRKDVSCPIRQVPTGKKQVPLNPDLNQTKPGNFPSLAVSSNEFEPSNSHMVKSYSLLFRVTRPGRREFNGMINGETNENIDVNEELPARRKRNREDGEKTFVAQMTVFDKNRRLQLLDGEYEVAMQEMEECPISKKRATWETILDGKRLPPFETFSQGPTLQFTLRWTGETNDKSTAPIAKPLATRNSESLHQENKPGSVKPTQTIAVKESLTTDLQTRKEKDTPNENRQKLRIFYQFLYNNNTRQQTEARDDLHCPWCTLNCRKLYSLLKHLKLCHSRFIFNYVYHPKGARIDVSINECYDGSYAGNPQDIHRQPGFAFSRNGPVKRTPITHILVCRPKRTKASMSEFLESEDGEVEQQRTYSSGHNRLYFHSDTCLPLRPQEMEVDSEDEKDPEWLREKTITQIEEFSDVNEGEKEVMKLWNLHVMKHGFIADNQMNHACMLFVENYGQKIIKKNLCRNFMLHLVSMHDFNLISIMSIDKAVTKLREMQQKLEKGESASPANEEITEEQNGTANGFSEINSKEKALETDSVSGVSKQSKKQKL
- PROCEDURE_DETAILS: Test on EZH2 (Y641N) inhibitory activity
// IC50 lookup, one value per entry
Numbers only; they are read as nM.

CCN(c1cc(O[C@H]2C[C@H](N3C[C@@H](C)O[C@@H](C)C3)C2)cc(C(=O)NCc2c(OC)cc(C)[nH]c2=O)c1C)C1CCC(F)(F)CC1 [Example 87]: 2.6
CCN(c1cc(O[C@H]2C[C@H](N3CCCCC3)C2)cc(C(=O)NCc2c(O)cc(C)[nH]c2=O)c1C)C1CCC(F)(F)CC1 [Example 94]: 100
CCN(c1cc(O[C@H]2C[C@H](N3C[C@@H](C)O[C@@H](C)C3)C2)cc(C(=O)NCc2c(OC)cc(C)[nH]c2=O)c1C)C1CC2CCC(C1)O2 (stereo partly drawn) [Example 88]: 2

Consider the additional molecule presented here.
Input line: Which IC50 is listed for CCN(c1cc(O[C@H]2C[C@H](N3C[C@@H](C)O[C@@H](C)C3)C2)cc(C(=O)NCc2c(C)cc(C)[nH]c2=O)c1C)C1CCC(F)(F)CC1 [Example 45] ?
Output line: 5.2

----------
- PROCEDURE_DETAILS: In vivo pharmacokinetic properties in mice
- Design: species or system mouse
- CONDITIONS: male ICR mice; single intravenous 5 mg/kg and intragastric 250 mg/kg study
ENDPOINT_NAME: CL (mL/min/lg)
A number alone suffices; assume mL/min/lg.

Input line: Need CL, item CCN(c1cc(O[C@H]2C[C@H](N3CCCCC3)C2)cc(C(=O)NCc2c(OC)cc(C)[nH]c2=O)c1C)C1CCC(F)(F)CC1
Output line: 66.9

Reference for the values: patent US12390472B2
